- Tested on: Wolbachia pipientis
- assayText: Anti-Wolbachia Cell-Based Screen
- Format: functional
- Set-up: scale not given: in the data most compounds retested in dose-response had high values
- conditionContext: 5 µM
Hit rate of the full screen: of about 48,000 compounds, about 13,000 (27%) showed an effect of 50% or more. The list shows a part of the results.
Define the label as true when Percent Effect is strictly less than 10% and as false in all remaining cases.

CCC(CC)C(CNC(=O)Nc1cc(C)nn1C)N1CCOCC1 (configuration not stated) : true
COCC1CC2(CCN(S(=O)(=O)C3CC3)CC2)CN1c1ncccn1.O=C(O)C(F)(F)F (configuration not stated) : true
Cc1nnc(NCc2cccc(OCC3CCCO3)c2)c(C#N)c1C (configuration not stated) : false
Cc1nc2ccccc2nc1NCc1cccc(OCC2CCCO2)c1 (configuration not stated) : false
CCOc1ccnc(NCc2nc(C)cc(=O)[nH]2)n1 : true
N#Cc1ccc(NCc2cccc(OCC3CCCO3)c2)nc1 (configuration not stated) : false
O=S1(=O)NCC2(CCN(c3ncc(F)cn3)CC2)COc2ccccc21 : true
Cc1c(NC(=O)NCC(C)N2CCOCC2)cccc1OC(F)F (configuration not stated) : true
C/C=C(\C)CN1C[C@H](NC(=O)c2cc[nH]c2C)[C@@H](C2CC2)C1 : true
CC(NC(=O)Nc1cccnc1N1CCOCC1)c1ccncc1 (configuration not stated) : true
Cc1ccc(-c2cnc(CCC(=O)NCCN3CCOCC3)o2)cc1C : true
